Test system: AGS cells
ASSAY_COMMENT: Cell viability in AGS cells (CellTiter Glo2, 8-point dose response, 4 days)
Assay type: cell-based, human
EXPERIMENTAL_CONDITIONS: Homo sapiens, AGS, 96 h
Procedure: AGS cells were treated with DMSO (no drug control) or each compound in Table 5 in an 8-point dose response for 4 days. Cell viability was measured using CellTiter Glo2. The IC50 of each compound was determined using CDD Vault.
pIC50: −log10 of the molar value.
# Lookup of reported pIC50 keyed by entry

These recorded examples may help you get a feel for the data.
CCC(=O)N1CCc2cc(-c3ccc(C(=O)NCc4ccc(OC)cc4)cc3)ccc21 [Compound I-156] :: < 4.52
CCC(=O)N1CCc2cc(-c3ccc(C(=O)NCc4cccc(Cl)c4)cc3)ccc21 [Compound I-168] :: < 4.52

Entry under review: CCOc1ccc(CNC(=O)c2ccc(-c3ccc4c(c3)CCN4C(=O)CC)cc2)cc1 [Compound I-180] . Reported pIC50? < 4.52

----------
Tested on: AGS cells
ASSAY_COMMENT: Cell viability in AGS cells (CellTiter Glo2, 8-point dose response, 4 days)
Format: cell-based, human
EXPERIMENTAL_CONDITIONS: Homo sapiens, AGS, 96 h
pIC50: −log10 of the molar value.
# Lookup of reported pIC50 keyed by entry

API: value(readout=pIC50, system=AGS cells) for record `CCC(=O)N1CCc2cc(-c3ccc(C(=O)NCC4CN(C(=O)OC(C)(C)C)C4)cc3)ccc21` < 4.52

Moving on to the next compound: `CCC(=O)N1CCc2cc(-c3ccc(C(=O)NCc4cnco4)cc3)ccc21` < 4.52

Moving on to the next compound: `CCC(=O)N1CCc2cc(-c3ccc(C(=O)NCc4cccnc4)c(OC)c3)ccc21` < 4.52

Moving on to the next compound: `CCC(=O)N1CCc2cc(-c3ccc(C(=O)NCc4ccco4)cc3)ccc21` < 4.52

Moving on to the next compound: `CCC(=O)N1CCc2cc(-c3ncc(C(=O)NCc4cccnc4)cn3)ccc21` < 4.52

Moving on to the next compound: `CCC(=O)N(C)c1ccc(-c2ccc(C(=O)NCc3cscn3)cc2)cc1` < 4.52

Moving on to the next compound: `CC(=O)N1CCCc2cc(-c3ccc(C(=O)NCc4cccnc4)cc3)ccc21` < 4.76

Moving on to the next compound: `CCC(=O)N(C)c1ccc(-c2ccc(C(=O)NCc3cncs3)cc2)cc1` < 4.52

Moving on to the next compound: `CCC(=O)N(C)c1ccc(-c2ccc(C(=O)NCc3ccccc3)cc2)cc1` < 4.52

Moving on to the next compound: `CCC(=O)N1CCc2cc(-c3ccc(C(=O)NCC4CCCC4)cc3)ccc21` < 4.00
